Test system: 876862-298-R-J1-PDC complex spheroids, viability % test/control
protocol summary: Anticancer human tumor 876862-298-R-J1-PDC patient-derived endometrial carcinoma cell line growth inhibition [CLK]
stated conditions: second compound 0.0316 µM; first compound 0.03 µM; stronger effect = lower value
Values of viability, T/C strictly less than 60% map to yes (1), and values of at least 60% map to no (0).

compound: CC(C)CC(NC(=O)C(Cc1ccccc1)NC(=O)c1cnccn1)B(O)O (stereo unspecified) + CNC(=O)c1ccc(Nc2nc(OC3CCCC3)c3c(-c4ccc5nc(C)oc5c4)c[nH]c3n2)c(OC)c1
assigned class: yes (1)
--
compound: NC(=O)C(=Cn1cnc(-c2cc(C(F)(F)F)cc(C(F)(F)F)c2)n1)c1cncnc1 + CN1CCN(c2cc(C(=O)Nc3cc4cc(-c5cnn(C)c5)ccc4cn3)ccn2)CC1
assigned class: yes (1)
--
compound: CC(C)CC(NC(=O)C(Cc1ccccc1)NC(=O)c1cnccn1)B(O)O (stereo unspecified) + CN1CCN(c2cc(C(=O)Nc3cc4cc(-c5cnn(C)c5)ccc4cn3)ccn2)CC1
assigned class: yes (1)
--
compound: C=CC(=O)Nc1cc(Nc2nccc(-c3cn(C)c4ccccc34)n2)c(OC)cc1N(C)CCN(C)C + CN1CCN(c2cc(C(=O)Nc3cc4cc(-c5cnn(C)c5)ccc4cn3)ccn2)CC1
assigned class: no (0)
--
compound: C=CC(=O)Nc1cc(Nc2nccc(-c3cn(C)c4ccccc34)n2)c(OC)cc1N(C)CCN(C)C + CNC(=O)c1ccc(Nc2nc(OC3CCCC3)c3c(-c4ccc5nc(C)oc5c4)c[nH]c3n2)c(OC)c1
assigned class: no (0)
--
compound: NC(=O)C(=Cn1cnc(-c2cc(C(F)(F)F)cc(C(F)(F)F)c2)n1)c1cncnc1 + CNC(=O)c1ccc(Nc2nc(OC3CCCC3)c3c(-c4ccc5nc(C)oc5c4)c[nH]c3n2)c(OC)c1
assigned class: yes (1)

====

# reported IC50; entries follow
Tested on: 876862-298-R-J1-PDC complex spheroids, viability % test/control
protocol summary: Anticancer human tumor 876862-298-R-J1-PDC cell line growth inhibition [CLK];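 note: spheroids exposed to drugs for 7 days before readout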
stated conditions: curve of first compound; second compound 0.1 µM

compound: COc1cccc2c1C(=O)c1c(O)c3c(c(O)c1C2=O)CC(O)(C(=O)CO)CC3OC1CC(N)C(O)C(C)O1 (centres undefined) + CN1CCN(c2cc(C(=O)Nc3cc4cc(-c5cnn(C)c5)ccc4cn3)ccn2)CC1
system tested: 876862-298-R-J1-PDC complex spheroids, viability % test/control
IC50: < 31.6 nM

compound: CC1COCCN1c1cc(C2(S(C)(=N)=O)CC2)nc(-c2ccnc3[nH]ccc23)n1 (centres undefined) + CNC(=O)c1ccc(Nc2nc(OC3CCCC3)c3c(-c4ccc5nc(C)oc5c4)c[nH]c3n2)c(OC)c1
system tested: 876862-298-R-J1-PDC complex spheroids, viability % test/control
IC50: < 31.6 nM

compound: O=c1[nH]cc(F)c(=O)[nH]1 + CNC(=O)c1ccc(Nc2nc(OC3CCCC3)c3c(-c4ccc5nc(C)oc5c4)c[nH]c3n2)c(OC)c1
system tested: 876862-298-R-J1-PDC complex spheroids, viability % test/control
IC50: < 31.6 nM

compound: CC(=O)O[C@H]1C(=O)[C@@]2(C)[C@H]([C@H](OC(=O)c3ccccc3)[C@]3(O)C[C@H](OC(=O)[C@H](O)[C@@H](NC(=O)c4ccccc4)c4ccccc4)C(C)=C1C3(C)C)[C@]1(OC(C)=O)CO[C@@H]1C[C@@H]2O + CNC(=O)c1ccc(Nc2nc(OC3CCCC3)c3c(-c4ccc5nc(C)oc5c4)c[nH]c3n2)c(OC)c1
system tested: 876862-298-R-J1-PDC complex spheroids, viability % test/control
IC50: < 31.6 nM

compound: COC1C=CCC(C)C(C)S(=O)(=O)NC(=O)c2ccc3c(c2)N(CC2CCC21)CC1(CCCc2cc(Cl)ccc21)CO3 (centres undefined) + CNC(=O)c1ccc(Nc2nc(OC3CCCC3)c3c(-c4ccc5nc(C)oc5c4)c[nH]c3n2)c(OC)c1
system tested: 876862-298-R-J1-PDC complex spheroids, viability % test/control
IC50: < 31.6 nM

compound: CC(C)CC(NC(=O)C(Cc1ccccc1)NC(=O)c1cnccn1)B(O)O (centres undefined) + CNC(=O)c1ccc(Nc2nc(OC3CCCC3)c3c(-c4ccc5nc(C)oc5c4)c[nH]c3n2)c(OC)c1
system tested: 876862-298-R-J1-PDC complex spheroids, viability % test/control
IC50: < 0.949 nM

compound: CCc1c2c(nc3ccc(O)cc13)-c1cc3c(c(=O)n1C2)COC(=O)[C@]3(O)CC + CNC(=O)c1ccc(Nc2nc(OC3CCCC3)c3c(-c4ccc5nc(C)oc5c4)c[nH]c3n2)c(OC)c1
system tested: 876862-298-R-J1-PDC complex spheroids, viability % test/control
IC50: < 3.16 nM

compound: Nc1ccn(C2OC(CO)C(O)C2(F)F)c(=O)n1 (centres undefined) + CNC(=O)c1ccc(Nc2nc(OC3CCCC3)c3c(-c4ccc5nc(C)oc5c4)c[nH]c3n2)c(OC)c1
system tested: 876862-298-R-J1-PDC complex spheroids, viability % test/control
IC50: < 31.6 nM

compound: C=C(F)C(=O)N1CCN(c2nc(OCC3CCCN3C)nc3c2CCN(c2cccc4cccc(Cl)c24)C3)CC1CC#N (centres undefined) + CN1CCN(c2cc(C(=O)Nc3cc4cc(-c5cnn(C)c5)ccc4cn3)ccn2)CC1
system tested: 876862-298-R-J1-PDC complex spheroids, viability % test/control
IC50: 3190 nM

compound: Nc1ccccc1NC(=O)c1ccc(CNC(=O)OCc2cccnc2)cc1 + CN1CCN(c2cc(C(=O)Nc3cc4cc(-c5cnn(C)c5)ccc4cn3)ccn2)CC1
system tested: 876862-298-R-J1-PDC complex spheroids, viability % test/control
IC50: < 31.6 nM

compound: CC(CO)NC(=O)c1cc(-c2ccc(Cl)cc2)nn(-c2cnn(C)c2)c1=O (centres undefined) + CN1CCN(c2cc(C(=O)Nc3cc4cc(-c5cnn(C)c5)ccc4cn3)ccn2)CC1
system tested: 876862-298-R-J1-PDC complex spheroids, viability % test/control
IC50: 319 nM

compound: C=CC(=O)N1CCN(c2nc(=O)n(-c3c(C)ccnc3C(C)C)c3nc(-c4c(O)cccc4F)c(F)cc23)C(C)C1 (centres undefined) + CNC(=O)c1ccc(Nc2nc(OC3CCCC3)c3c(-c4ccc5nc(C)oc5c4)c[nH]c3n2)c(OC)c1
system tested: 876862-298-R-J1-PDC complex spheroids, viability % test/control
IC50: 322 nM

compound: Nc1ccccc1NC(=O)c1ccc(CNC(=O)OCc2cccnc2)cc1 + CNC(=O)c1ccc(Nc2nc(OC3CCCC3)c3c(-c4ccc5nc(C)oc5c4)c[nH]c3n2)c(OC)c1
system tested: 876862-298-R-J1-PDC complex spheroids, viability % test/control
IC50: 1070 nM

compound: COC1C=CCC(C)C(C)S(=O)(=O)NC(=O)c2ccc3c(c2)N(CC2CCC21)CC1(CCCc2cc(Cl)ccc21)CO3 (centres undefined) + CN1CCN(c2cc(C(=O)Nc3cc4cc(-c5cnn(C)c5)ccc4cn3)ccn2)CC1
system tested: 876862-298-R-J1-PDC complex spheroids, viability % test/control
IC50: 212 nM

compound: CCCS(=O)(=O)Nc1ccc(F)c(C(=O)c2c[nH]c3ncc(-c4ccc(Cl)cc4)cc23)c1F + CNC(=O)c1ccc(Nc2nc(OC3CCCC3)c3c(-c4ccc5nc(C)oc5c4)c[nH]c3n2)c(OC)c1
system tested: 876862-298-R-J1-PDC complex spheroids, viability % test/control
IC50: < 31.6 nM

compound: CC1(C)CCC(CN2CCN(c3ccc(C(=O)NS(=O)(=O)c4ccc(NCC5CCOCC5)c([N+](=O)[O-])c4)c(Oc4cnc5[nH]ccc5c4)c3)CC2)=C(c2ccc(Cl)cc2)C1 + CN1CCN(c2cc(C(=O)Nc3cc4cc(-c5cnn(C)c5)ccc4cn3)ccn2)CC1
system tested: 876862-298-R-J1-PDC complex spheroids, viability % test/control
IC50: < 31.6 nM

compound: CC(=O)O[C@H]1C(=O)[C@@]2(C)[C@H]([C@H](OC(=O)c3ccccc3)[C@]3(O)C[C@H](OC(=O)[C@H](O)[C@@H](NC(=O)c4ccccc4)c4ccccc4)C(C)=C1C3(C)C)[C@]1(OC(C)=O)CO[C@@H]1C[C@@H]2O + CN1CCN(c2cc(C(=O)Nc3cc4cc(-c5cnn(C)c5)ccc4cn3)ccn2)CC1
system tested: 876862-298-R-J1-PDC complex spheroids, viability % test/control
IC50: < 31.6 nM

compound: C=CC(=O)N1CCN(c2nc(=O)n(-c3c(C)ccnc3C(C)C)c3nc(-c4c(O)cccc4F)c(F)cc23)C(C)C1 (centres undefined) + CN1CCN(c2cc(C(=O)Nc3cc4cc(-c5cnn(C)c5)ccc4cn3)ccn2)CC1
system tested: 876862-298-R-J1-PDC complex spheroids, viability % test/control
IC50: 1720 nM

compound: CCN1CCN(Cc2ccc(Nc3ncc(F)c(-c4cc(F)c5nc(C)n(C(C)C)c5c4)n3)nc2)CC1 + CNC(=O)c1ccc(Nc2nc(OC3CCCC3)c3c(-c4ccc5nc(C)oc5c4)c[nH]c3n2)c(OC)c1
system tested: 876862-298-R-J1-PDC complex spheroids, viability % test/control
IC50: 60.7 nM
